Data credit: patent US20130109846A1

Readings of Luciferase assay (EC50) for the listed binders
Molecular target: human CD28 (human, UniProt P10747 19-220)
Experiment: cell-based or functional assay
Your answer is read as nM, so omit the unit and give the number.

In the examples that follow, each entry is paired with its recorded Luciferase assay (EC50).
>  <binder>
1h-115 (other) VH: EVQLLESGGGLVQPGGSLRLSCAASGFTFSEYSMAWVRQAPGKGLEWVSHISRDGEFTYYADSVKGRFTISRDNSKNTLYLQMNSLRAEDTAVYYCAKGNADLGWVQPHLFVYWGQGTLVTVSS

>  <resultUnit>
nM

>  <measValue>
4000

$$$$
>  <binder>
1h-93 (other) VH: EVQLLESGGGLVQPGGSLRLSCAASGFTFPLYEMAWVRQAPGKGLEWVSSIMSNGIRTYYADSVKGRFTISRDNSKNTLYLQMNSLRAEDTAVYYCAKRKSSSSRTVFDYWGQGTLVTVSS

>  <resultUnit>
nM

>  <measValue>
2800

$$$$

Problem: What value of measured Luciferase assay (EC50) is listed for 1h-99-245 (other) VH: EVQLLESGGGLVQPGGSLRLSCAASGFTFDSANMSWARQAPGKGLEWVSWIEASGFQTFYADSVKGRFTISRDNSKNTLYLQMNSLRAEDTAVYYCAKSPFGPLYGFDYRGQGTLVTVSS ?
Solution: 6
